- experimental_system: full-length NS3 (1-631) protein (HCV NS3 helicase) (Hepatitis C virus genotype 1a)
- Construct: Recombinant, purified, full-length NS3 (1-631) protein
- Sequence (P27958 1027-1657 T1100M/T1173A/K1247Q/A1303G/S1327L/G1556E/R1608W): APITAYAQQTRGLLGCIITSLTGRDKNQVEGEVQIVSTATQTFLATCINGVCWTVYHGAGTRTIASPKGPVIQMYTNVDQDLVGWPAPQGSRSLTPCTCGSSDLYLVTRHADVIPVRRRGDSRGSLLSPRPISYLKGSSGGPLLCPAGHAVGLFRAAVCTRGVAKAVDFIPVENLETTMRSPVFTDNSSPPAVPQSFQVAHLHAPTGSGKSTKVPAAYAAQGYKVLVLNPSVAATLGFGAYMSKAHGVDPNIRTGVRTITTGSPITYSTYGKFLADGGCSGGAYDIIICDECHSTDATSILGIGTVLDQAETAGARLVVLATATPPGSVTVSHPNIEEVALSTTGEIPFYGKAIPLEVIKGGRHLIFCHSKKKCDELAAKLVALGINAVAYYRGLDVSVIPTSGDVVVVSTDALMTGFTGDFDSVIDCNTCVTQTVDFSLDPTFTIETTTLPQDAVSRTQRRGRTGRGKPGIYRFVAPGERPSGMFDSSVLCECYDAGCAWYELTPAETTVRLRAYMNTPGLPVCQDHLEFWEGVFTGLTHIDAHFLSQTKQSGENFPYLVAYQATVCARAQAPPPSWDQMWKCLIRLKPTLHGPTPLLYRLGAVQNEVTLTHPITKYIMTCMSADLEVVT
- measurement_description: HCV Helicase TR-FRET Unwinding Assay
- Assay type: biochemical
- assay_setup: second TR-FRET IC50 column (c2) of Table 4, same head as the first, inhibition of DNA unwinding
pIC50: −log10 of the molar value.
# pIC50 per record follows

Worked cases, answers included:
CN(C)c1ccc(/C=C/C(=O)N2CCC(C(=O)O)CC2)c(Cl)c1 = 4.30 to 5.00
COc1ccccc1Sc1ccc(/C=C/C(=O)N2CCC(C(=O)O)CC2)c(Cl)c1Cl [Example 32D] = 4.30 to 5.00

Reported pIC50 for `CCN(CC)C(=O)/C=C/c1ccc(Sc2ccccc2OC)cc1Cl` : what is it?
4.30 to 5.00

Reported pIC50 for `O=C(/C=C/c1ccc(Sc2ccc(F)cc2)cc1Cl)N1CCOCC1` : what is it?
4.30 to 5.00

Reported pIC50 for COc1ccccc1Sc1ccc(/C=C/C(=O)NCCC2CCN(C)C2)c(Cl)c1 (stereo not shown) : what is it?
4.30 to 5.00

Reported pIC50 for `O=C(/C=C/c1ccccc1Cl)Nc1ccccc1` : what is it?
4.30 to 5.00

Reported pIC50 for `CN(C)c1ccc(/C=C/C(=O)N2CCOCC2)c(Cl)c1` : what is it?
4.30 to 5.00
